Molecular target: VIM-1 (Pseudomonas aeruginosa, UniProt A0A0F7KYQ8)
Construct: made in house
Assay: In vitro inhibition assay (kinetic fluorescence-based activity assay), VIM-1
Type: biochemical
Conditions: Means and SD of at least two independent experiments
measurementType: IC50 (µM)
Use µM as the unit, but write only the number.

Query string: What measured IC50 goes with O=C(CCS)Nc1ccc(S(=O)(=O)N2CCOCC2)cc1 [HIPS5659] ?
Result string: 1.7

Query string: What about this molecule? NC(=O)NS(=O)(=O)c1ccc(NC(=O)CCS)cc1 [HIPS5682]
Result string: 2

Query string: What about this molecule? COC(=O)c1ccc(NC(=O)CCS)cc1 [HIPS5586]
Result string: 0.1

Query string: What about this molecule? O=C(CCS)Nc1ccc(Cl)c(Cl)c1 [HIPS1447]
Result string: 0.1

Query string: What about this molecule? CS(=O)(=O)Nc1cccc(NC(=O)CCS)c1 [HIPS5585]
Result string: 1.3

Query string: What about this molecule? CS(=O)(=O)Nc1ccccc1NC(=O)CCS [HIPS5654]
Result string: 1.9

Query string: What about this molecule? CCN(CC)Cc1cccc(NC(=O)CCS)c1 [HIPS5664]
Result string: 0.8

Query string: What about this molecule? CN1CCN(Cc2ccc(NC(=O)CCS)cc2)CC1 [HIPS5696]
Result string: 1.5

Query string: What about this molecule? CN(C)S(=O)(=O)c1ccc(NC(=O)CCS)cc1 [HIPS5665]
Result string: 0.8

Query string: What about this molecule? CC(=O)c1ccc(NC(=O)CCS)cc1 [HIPS5188]
Result string: 0.4

Query string: What about this molecule? O=C(CCS)Nc1cccc(C(=O)O)c1 [HIPS5694, 3-(3-mercaptopropanamido)benzoic acid]
Result string: 1.2

Query string: What about this molecule? O=C(CCS)Nc1cccc(O)c1 [HIPS1687]
Result string: 0.1

Query string: What about this molecule? O=C(CCS)Nc1ccccc1O [HIPS5661]
Result string: 0.2

Query string: What about this molecule? O=C(CCS)Nc1ccc(C(=O)O)cc1 [HIPS5695]
Result string: 0.6

Query string: What about this molecule? O=C(CCS)Nc1cccc([N+](=O)[O-])c1 [HIPS5662]
Result string: 0.1

Query string: What about this molecule? O=C(CCS)Nc1cccc(S(=O)(=O)O)c1 [HIPS5672]
Result string: 1.6

Query string: What about this molecule? Nc1ccc(NC(=O)CCS)cc1 [HIPS5666]
Result string: 0.5

Query string: What about this molecule? O=C(CCS)Nc1ccccc1C(=O)O [HIPS1686]
Result string: 2.2

Query string: What about this molecule? N=C(N)NS(=O)(=O)c1ccc(NC(=O)CCS)cc1 [HIPS5683]
Result string: 0.5

Query string: What about this molecule? O=C(CCS)Nc1ccc(O)cc1 [HIPS5190]
Result string: 0.2

====

Test system: E. coli IMP-1 (T2360)
Test: Checkerboard assay with imipenem, E. coli IMP-1 (T2360)
Type: cell-based
Details: +128 mg/L compound
measurementType: Imipenem MIC (mg/L)
Use mg/L as the unit, but write only the number.

Query string: What measured Imipenem MIC goes with NC(=O)NS(=O)(=O)c1ccc(NC(=O)CCS)cc1 ?
Result string: 1

Query string: What about this compound? O=C(CCS)Nc1cccc(C(=O)O)c1
Result string: 0.5

Query string: What about this compound? N=C(N)NS(=O)(=O)c1ccc(NC(=O)CCS)cc1
Result string: 0.5

Query string: What about this compound? O=C(CCS)Nc1ccc(C(=O)O)cc1
Result string: 0.5

Query string: What about this compound? O=C(CCS)Nc1cccc(S(=O)(=O)O)c1
Result string: 0.5

====

System: E. coli VIM-1 (T2544)
Test: Checkerboard assay with imipenem, E. coli VIM-1 (T2544)
Type: cell-based
Conditions: +128 mg/L compound
Would you mind telling me the reported Imipenem MIC of each entry?
Use µg/mL as the unit, but write only the number.

Query string: What measured Imipenem MIC goes with O=C(CCS)Nc1cccc(C(=O)O)c1 ?
Result string: 0.5

Query string: What about this molecule? O=C(CCS)Nc1cccc(S(=O)(=O)O)c1
Result string: 4

Query string: What about this molecule? NC(=O)NS(=O)(=O)c1ccc(NC(=O)CCS)cc1
Result string: 2

Query string: What about this molecule? O=C(CCS)Nc1ccc(C(=O)O)cc1
Result string: 1

Query string: What about this molecule? N=C(N)NS(=O)(=O)c1ccc(NC(=O)CCS)cc1
Result string: 2

====

Test system: E. coli IMP-1 (T2360)
Assay: Checkerboard assay with imipenem, E. coli IMP-1 (T2360)
Assay type: cell-based
Settings: +64 mg/L compound
measurementType: Imipenem MIC (mg/L)
Use mg/L as the unit, but write only the number.

Query string: What measured Imipenem MIC goes with O=C(CCS)Nc1cccc(C(=O)O)c1 ?
Result string: 0.5

Query string: What about this compound? O=C(CCS)Nc1cccc(S(=O)(=O)O)c1
Result string: 1

Query string: What about this compound? NC(=O)NS(=O)(=O)c1ccc(NC(=O)CCS)cc1
Result string: 1

Query string: What about this compound? N=C(N)NS(=O)(=O)c1ccc(NC(=O)CCS)cc1
Result string: 1

Query string: What about this compound? O=C(CCS)Nc1ccc(C(=O)O)cc1
Result string: 0.5

====

System: E. coli VIM-1 (T2544)
Test: Checkerboard assay with imipenem, E. coli VIM-1 (T2544)
Type: cell-based
Conditions: +64 mg/L compound
measurementType: Imipenem MIC (µg/mL)
Use µg/mL as the unit, but write only the number.

Query string: What measured Imipenem MIC goes with O=C(CCS)Nc1cccc(C(=O)O)c1 [HIPS5694, 3-(3-mercaptopropanamido)benzoic acid] ?
Result string: 8

Query string: What about this compound? N=C(N)NS(=O)(=O)c1ccc(NC(=O)CCS)cc1 [HIPS5683]
Result string: 8

Query string: What about this compound? O=C(CCS)Nc1ccc(C(=O)O)cc1 [HIPS5695]
Result string: 2

Query string: What about this compound? O=C(CCS)Nc1cccc(S(=O)(=O)O)c1 [HIPS5672]
Result string: 8

Query string: What about this compound? NC(=O)NS(=O)(=O)c1ccc(NC(=O)CCS)cc1 [HIPS5682]
Result string: 8

====

Would you mind telling me the reported IC50 of each entry?
Target: NDM-1 (Klebsiella pneumoniae)
Construct: made in house
Sequence (C7C422 29-270, looked up, species assumed): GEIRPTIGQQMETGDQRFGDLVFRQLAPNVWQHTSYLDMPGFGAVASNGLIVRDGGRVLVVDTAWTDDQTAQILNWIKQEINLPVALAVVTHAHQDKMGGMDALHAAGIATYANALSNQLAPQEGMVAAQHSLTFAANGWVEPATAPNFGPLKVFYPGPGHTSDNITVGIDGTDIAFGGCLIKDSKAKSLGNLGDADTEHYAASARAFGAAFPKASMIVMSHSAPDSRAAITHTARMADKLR
Experiment: In vitro inhibition assay (kinetic fluorescence-based activity assay), NDM-1
Assay type: biochemical
Settings: Means and SD of at least two independent experiments
Use µM as the unit, but write only the number.

Query string: What measured IC50 goes with CN1CCN(Cc2ccc(NC(=O)CCS)cc2)CC1 ?
Result string: 6.4

Query string: What about this compound? COC(=O)c1ccccc1NC(=O)CCS
Result string: 1.3

Query string: What about this compound? O=C(CCS)Nc1ccc(O)cc1
Result string: 4

Query string: What about this compound? O=C(CCS)Nc1ccccc1C(=O)O
Result string: 3.4

Query string: What about this compound? CCN(CC)Cc1cccc(NC(=O)CCS)c1
Result string: 6.5

Query string: What about this compound? O=C(CCS)Nc1cccc(S(=O)(=O)O)c1
Result string: 1.3

Query string: What about this compound? CC(=O)c1ccc(NC(=O)CCS)cc1
Result string: 1.5

Query string: What about this compound? O=C(CCS)Nc1ccc(S(=O)(=O)N2CCOCC2)cc1
Result string: 2.5

Query string: What about this compound? O=C(CCS)Nc1cccc([N+](=O)[O-])c1
Result string: 2.5

Query string: What about this compound? COC(=O)c1ccc(NC(=O)CCS)cc1
Result string: 2.8

Query string: What about this compound? O=C(CCS)Nc1ccc(C(=O)O)cc1
Result string: 1

Query string: What about this compound? Nc1ccc(NC(=O)CCS)cc1
Result string: 6.5

====

Would you mind telling me the reported IC50 of each entry?
Target: IMP-7 (Pseudomonas aeruginosa, UniProt Q93AU3)
Sequence (Q93AU3 entry or part of it): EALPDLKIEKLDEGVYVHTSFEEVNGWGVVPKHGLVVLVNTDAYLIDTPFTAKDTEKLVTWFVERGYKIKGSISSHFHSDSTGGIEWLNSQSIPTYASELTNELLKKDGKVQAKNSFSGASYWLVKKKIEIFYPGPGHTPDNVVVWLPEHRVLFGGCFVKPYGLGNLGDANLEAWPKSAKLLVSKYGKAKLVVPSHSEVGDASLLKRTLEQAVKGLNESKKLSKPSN
Assay: In vitro inhibition assay (kinetic fluorescence-based activity assay), IMP-7
Type: biochemical
Conditions: Means and SD of at least two independent experiments
Use µM as the unit, but write only the number.

Query string: Enter reported IC50 observed with IMP-7 (Pseudomonas aeruginosa, UniProt Q93AU3) for O=C(CCS)Nc1ccc(O)cc1
Result string: 3.4

Query string: What about this compound? O=C(CCS)Nc1ccc(S(=O)(=O)N2CCOCC2)cc1
Result string: 7.1

Query string: What about this compound? COC(=O)c1ccc(NC(=O)CCS)cc1
Result string: 1.1

Query string: What about this compound? O=C(CCS)Nc1cccc([N+](=O)[O-])c1
Result string: 2.6

Query string: What about this compound? O=C(CCS)Nc1ccccc1C(=O)O
Result string: 4.1

Query string: What about this compound? O=C(CCS)Nc1cccc(S(=O)(=O)O)c1
Result string: 3.6

====

Experiment: Cytotoxicity assay on HEK293 cells
Type: cell-based
Conditions: human
pIC50: −log10 of the molar value.
measurementType: pIC50

Query string: What measured pIC50 goes with O=C(CCS)Nc1ccc(Cl)c(Cl)c1 [HIPS1447] ?
Result string: < 4.00
